biological target: mPGES-1 in A549 cells (Homo sapiens (Human)); experiment: A549 cell-based assay (PGE2 formation, 50% human serum); details: IL-1β 5 ng/ml, 10 nM arachidonic acid, 20-24 h, read-out: mPGES-1 inhibitory effect IC50 in the cell assay
Sequence (O14684 whole entry): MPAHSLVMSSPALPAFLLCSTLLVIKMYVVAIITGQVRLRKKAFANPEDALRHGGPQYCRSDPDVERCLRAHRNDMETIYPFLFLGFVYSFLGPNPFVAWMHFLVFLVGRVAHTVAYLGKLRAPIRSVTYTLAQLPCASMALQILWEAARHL
measured.property: IC50 (nM)

compound: CC(C)(C)C(=O)NCc1ccc(F)c(Nc2nc3cc(C(=O)N[C@H]4CC[C@H](C(F)(F)F)CC4)c(N4CCC(F)CC4)cc3[nH]2)c1F
unit.of.measure: nM
result.modifier: =
value.reported: 39
--
compound: Cn1c(Nc2c(F)ccc(CNC(=O)C(C)(C)C)c2F)nc2cc(C(=O)N[C@H]3CC[C@H](C(F)(F)F)CC3)c(N3CCC(F)CC3)cc21
unit.of.measure: nM
result.modifier: =
value.reported: 3
--
compound: Cn1c(Nc2c(Cl)ccc(CNC(=O)C(C)(C)C)c2Cl)nc2cc(C(=O)NCc3ncccc3C(F)(F)F)c(N3CCC(F)(F)C3)cc21
unit.of.measure: nM
result.modifier: =
value.reported: 5
--
compound: Cc1nc(N)sc1C(=O)NCc1ccc(Cl)c(Nc2nc3cc(C(=O)N[C@H]4CC[C@H](C(F)(F)F)CC4)c(N4CC5CC5C4)cc3n2C)c1Cl (some centres unmarked)
unit.of.measure: nM
result.modifier: =
value.reported: 71
--
compound: Cn1c(Nc2c(Cl)ccc(CNC(=O)C(C)(C)C)c2Cl)nc2cc(C(=O)N[C@H]3CC[C@H](C(F)(F)F)CC3)c(N3CC4CCCC43)cc21 (some centres unmarked)
unit.of.measure: nM
result.modifier: =
value.reported: 7
--
compound: Cn1c(Nc2c(Cl)ccc(CNC(=O)C(C)(C)C)c2Cl)nc2cc(C(=O)Nc3cc(C(C)(C)C)no3)c(N3CCC(C(F)(F)F)CC3)cc21
unit.of.measure: nM
result.modifier: =
value.reported: 1
--
compound: Cn1c(Nc2c(Cl)ccc(CNC(=O)C(C)(C)C)c2Cl)nc2cc(C(=O)N[C@H]3CC[C@H](C(F)(F)F)CC3)c(N3CCn4ncnc4C3)cc21
unit.of.measure: nM
result.modifier: =
value.reported: 10
--
compound: Cn1c(Nc2c(Cl)ccc(CNC(=O)C(C)(C)C)c2Cl)nc2cc(C(=O)NC3CC(F)(F)C3)c(N3CCC(C(F)(F)F)CC3)cc21
unit.of.measure: nM
result.modifier: <
value.reported: 1
--
compound: Cn1c(Nc2c(Cl)ccc(CNC(=O)C(C)(C)F)c2Cl)nc2cc(C(=O)Nc3ccc(OC(F)(F)F)cc3)c(N3CCC(C(F)(F)F)CC3)cc21
unit.of.measure: nM
result.modifier: <
value.reported: 1
--
compound: Cn1c(Nc2c(Cl)ccc(CNC(=O)c3ncn[nH]3)c2Cl)nc2cc(C(=O)N[C@H]3CC[C@H](C(F)(F)F)CC3)c(N3CC4CC4C3)cc21 (some centres unmarked)
unit.of.measure: nM
result.modifier: >
value.reported: 100
--
compound: Cn1c(Nc2c(Cl)ccc(CNC(=O)C(C)(C)C)c2Cl)nc2cc(C(=O)Nc3ccc(OC(F)(F)F)cc3)c(N3CCC(F)(F)C3)cc21
unit.of.measure: nM
result.modifier: =
value.reported: 1
--
compound: Cn1c(Nc2c(Cl)ccc(CNC(=O)C(C)(C)F)c2Cl)nc2cc(C(=O)N[C@H]3CC[C@H](C(F)(F)F)CC3)c(N3CCOCC3)cc21
unit.of.measure: nM
result.modifier: <
value.reported: 1
--
compound: Cn1c(Nc2c(Cl)ccc(CNC(=O)C(C)(C)C)c2Cl)nc2cc(C(=O)N[C@H]3CC[C@H](C(F)(F)F)CC3)c(N3CCC(F)CC3)cc21
unit.of.measure: nM
result.modifier: =
value.reported: 1.4
--
compound: CC(C)(C)C(=O)NCc1ccc(Cl)c(Nc2nc3cc(C(=O)N[C@H]4CC[C@H](C(F)(F)F)CC4)c(N4CC[C@@H](F)C4)cc3n2CC(F)F)c1Cl
unit.of.measure: nM
result.modifier: =
value.reported: 1
--
compound: Cn1c(Nc2c(Cl)ccc(CNC(=O)C(C)(C)C)c2Cl)nc2cc(C(=O)Nc3ccc(F)c(Cl)c3)c(NCC(F)F)cc21
unit.of.measure: nM
result.modifier: =
value.reported: 6
--
compound: Cn1c(Nc2c(Cl)ccc(CNC(=O)C(C)(C)C)c2Cl)nc2cc(C(=O)Nc3nnc(C(C)(C)C)s3)c(N3CCC(C(F)(F)F)CC3)cc21
unit.of.measure: nM
result.modifier: =
value.reported: 2
--
compound: CC(NC(=O)c1cc2nc(Nc3c(Cl)ccc(CNC(=O)C(C)(C)C)c3Cl)n(C)c2cc1N1CCC(F)(F)C1)C(F)(F)F (centres unmarked)
unit.of.measure: nM
result.modifier: =
value.reported: 2
--
compound: Cn1c(Nc2c(Cl)ccc(CNC(=O)c3csc(N)n3)c2Cl)nc2cc(C(=O)N[C@H]3CC[C@H](C(F)(F)F)CC3)c(N3CC4CC4C3)cc21 (some centres unmarked)
unit.of.measure: nM
result.modifier: =
value.reported: 4.6
--
compound: CC1(O)CCN(c2cc3c(cc2C(=O)N[C@H]2CC[C@H](C(F)(F)F)CC2)nc(Nc2c(Cl)ccc(CNC(=O)C(C)(C)F)c2Cl)n3CC(F)F)CC1
unit.of.measure: nM
result.modifier: <
value.reported: 1
--
compound: Cn1c(Nc2c(Cl)ccc(CNC(=O)C(C)(C)C)c2Cl)nc2cc(C(=O)Nc3ccc(F)c(Cl)c3)c(N3CCC(F)CC3)cc21
unit.of.measure: nM
result.modifier: =
value.reported: 1
--
compound: Cn1c(Nc2c(Cl)ccc(CNC(=O)C(C)(C)C)c2Cl)nc2cc(C(=O)NCC(F)(F)C(F)(F)F)c(N3CCOCC3)cc21
unit.of.measure: nM
result.modifier: =
value.reported: 1
--
compound: CN(c1cc2c(cc1C(=O)N[C@H]1CC[C@H](C(F)(F)F)CC1)nc(Nc1c(Cl)ccc(CNC(=O)C(C)(C)C)c1Cl)n2C)C1CCC1
unit.of.measure: nM
result.modifier: <
value.reported: 1
--
compound: Cn1c(Nc2c(Cl)ccc(CNC(=O)c3cc(O)[nH]n3)c2Cl)nc2cc(C(=O)N[C@H]3CC[C@H](C(F)(F)F)CC3)c(N3CC4CC4C3)cc21 (some centres unmarked)
unit.of.measure: nM
result.modifier: =
value.reported: 98
